Molecular target: T1, cyno FcRn/b2M (cyno, UniProt Q8SPV9 24-297; Q8SPW0 21-119, biotinylated)
T1 construct: bought recombinant biotinylated protein (Immunitrack ITF05 or ACRO FCM-C82W5); also called cFcRn; cFcRn/cb2M
T1 sequence (Q8SPV9 24-297 limits assumed, chain 1 of 2): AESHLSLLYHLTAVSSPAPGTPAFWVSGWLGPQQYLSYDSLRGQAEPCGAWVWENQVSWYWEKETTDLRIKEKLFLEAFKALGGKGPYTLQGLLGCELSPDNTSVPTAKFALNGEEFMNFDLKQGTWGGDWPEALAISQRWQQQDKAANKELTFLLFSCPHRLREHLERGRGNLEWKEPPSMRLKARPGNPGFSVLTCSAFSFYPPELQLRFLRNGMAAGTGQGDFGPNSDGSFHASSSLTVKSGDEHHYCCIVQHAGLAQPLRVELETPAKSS
T1 sequence (Q8SPW0 21-119 limits assumed, chain 2 of 2): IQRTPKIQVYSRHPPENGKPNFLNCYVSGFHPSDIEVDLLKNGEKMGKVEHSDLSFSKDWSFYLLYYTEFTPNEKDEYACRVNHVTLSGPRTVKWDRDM
Assay: SPR off-rate; pH 7.4 vs pH 6.0;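 further: surface plasmon resonance with diluted periplasmic extracts flowed over ligand surfaces, 120 s association and 600–3600 s dissociation at 25 °C, running buffer containing 150 mM NaCl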
experimental endpoint: kd ratio pH 7.4/6.0
Form: value (number only, do not type unit).

{"binder": "T0263018B11 L100aV (VHH, name in Kabat numbering, FLAG3-His6 tagged) VHH: EVQLVESGGGVVQPGGSLRLSCAASGFTFSSYAMYWVRQAPGKGLEWVSAISSGGGSTDYADSVKGRFTISRDNSKNTLYLQMNSLRPEDTALYYCAADTLYTSVTWYSYWGQGTLVTVSS", "measured number": 39}
{"binder": "T0263018B11 S101W (VHH, name in Kabat numbering, FLAG3-His6 tagged) VHH: EVQLVESGGGVVQPGGSLRLSCAASGFTFSSYAMYWVRQAPGKGLEWVSAISSGGGSTDYADSVKGRFTISRDNSKNTLYLQMNSLRPEDTALYYCAADTLYTSLTWYWYWGQGTLVTVSS", "measured number": 9}
{"binder": "T0263018B11 S52Q (VHH, name in Kabat numbering, FLAG3-His6 tagged) VHH: EVQLVESGGGVVQPGGSLRLSCAASGFTFSSYAMYWVRQAPGKGLEWVSAIQSGGGSTDYADSVKGRFTISRDNSKNTLYLQMNSLRPEDTALYYCAADTLYTSLTWYSYWGQGTLVTVSS", "measured number": 26}
{"binder": "T0263018B11 D58E (VHH, name in Kabat numbering, FLAG3-His6 tagged) VHH: EVQLVESGGGVVQPGGSLRLSCAASGFTFSSYAMYWVRQAPGKGLEWVSAISSGGGSTEYADSVKGRFTISRDNSKNTLYLQMNSLRPEDTALYYCAADTLYTSLTWYSYWGQGTLVTVSS", "measured number": 32}
{"binder": "T0263018B11 A33N (VHH, name in Kabat numbering, FLAG3-His6 tagged) VHH: EVQLVESGGGVVQPGGSLRLSCAASGFTFSSYNMYWVRQAPGKGLEWVSAISSGGGSTDYADSVKGRFTISRDNSKNTLYLQMNSLRPEDTALYYCAADTLYTSLTWYSYWGQGTLVTVSS", "measured number": 49}
{"binder": "T0263018B11 S52aE (VHH, name in Kabat numbering, FLAG3-His6 tagged) VHH: EVQLVESGGGVVQPGGSLRLSCAASGFTFSSYAMYWVRQAPGKGLEWVSAISEGGGSTDYADSVKGRFTISRDNSKNTLYLQMNSLRPEDTALYYCAADTLYTSLTWYSYWGQGTLVTVSS", "measured number": 51}
{"binder": "T0263018B11 S56A (VHH, name in Kabat numbering, FLAG3-His6 tagged) VHH: EVQLVESGGGVVQPGGSLRLSCAASGFTFSSYAMYWVRQAPGKGLEWVSAISSGGGATDYADSVKGRFTISRDNSKNTLYLQMNSLRPEDTALYYCAADTLYTSLTWYSYWGQGTLVTVSS", "measured number": 45}

Let's switch to this binder now.
Lookup: Report kd ratio pH 7.4/6.0 for T0263018B11 S52H (VHH, name in Kabat numbering, FLAG3-His6 tagged) VHH: EVQLVESGGGVVQPGGSLRLSCAASGFTFSSYAMYWVRQAPGKGLEWVSAIHSGGGSTDYADSVKGRFTISRDNSKNTLYLQMNSLRPEDTALYYCAADTLYTSLTWYSYWGQGTLVTVSS please.
Found: 48

The reported measurements were obtained from patent US20240132624A1.
